- assay: Stability in mouse plasma assessed as compound remaining parent compound after 0.5 hrs
- Assay type: ADME, cell-free
- applied.conditions: read-out: Stability
attribute.measured: remaining at 0.5 h (%)

compound	remaining at 0.5 h (%)
COc1ccc(C=O)c(OCC(=O)Nc2sc3c(c2C#N)CCC(C)C3)c1 (stereo not given)	57
COc1ccc(C=O)cc1OCC(=O)Nc1sc2c(c1C#N)CCC(C)C2 (stereo not given)	76.5
COc1cc(C=O)cc(OCC(=O)Nc2sc3c(c2C#N)CCC(C)C3)c1OC (racemic)	84.3
COc1cc(C=O)ccc1OCC(=O)Nc1sc2c(c1C#N)CCC(C)C2 (stereo not given)	83.3
COc1ccc(CNC(=O)Nc2sc3c(c2C#N)CCCC3)c(OC)c1	78

---

- assay: Aqueous solubility of compound
- Assay type: physicochemical
attribute.measured: solubility (µM)

molecule	solubility / µM
COc1ccc(C=O)c(OCC(=O)Nc2sc3c(c2C#N)CCC(C)C3)c1 (stereo not given)	22.2
COc1cc(C=O)ccc1OCC(=O)Nc1sc2c(c1C#N)CCC(C)C2 (stereo not given)	28.6
COc1cc(C=O)cc(OCC(=O)Nc2sc3c(c2C#N)CCC(C)C3)c1OC (racemic)	25
COc1ccc(C=O)cc1OCC(=O)Nc1sc2c(c1C#N)CCC(C)C2 (stereo not given)	25
COc1ccc(CNC(=O)Nc2sc3c(c2C#N)CCCC3)c(OC)c1	28.6

---

- assay: Inhibition of alpha-amylase (unknown origin)
- Design: species or system Homo sapiens
pIC50: −log10 of the molar value.
attribute.measured: pIC50

compound	observed.measurement
COc1cc(C=O)ccc1OCC(=O)Nc1sc2c(c1C#N)CCC(C)C2 (stereo not given)	4.29
COc1ccc(C=O)cc1OCC(=O)Nc1sc2c(c1C#N)CCC(C)C2 (stereo not given)	4.42

I = COc1cc(C=O)cc(OCC(=O)Nc2sc3c(c2C#N)CCC(C)C3)c1OC (racemic)
II = COc1ccc(C=O)c(OCC(=O)Nc2sc3c(c2C#N)CCC(C)C3)c1 (stereo not given)
Just curious, which one has the larger pIC50 reading, I or II ? # reply format: chosen label I
(I: 4.43, II: 4.18)

---

- assay: Stability in mouse plasma assessed as compound remaining parent compound after 6 hrs
- Assay type: ADME, cell-free
- applied.conditions: read-out: Stability
attribute.measured: remaining at 6 h (%)

Sample records with remaining at 6 h:
compound	remaining at 6 h [%]
COc1ccc(C=O)cc1OCC(=O)Nc1sc2c(c1C#N)CCC(C)C2 (stereo not given)	0
COc1ccc(C=O)c(OCC(=O)Nc2sc3c(c2C#N)CCC(C)C3)c1 (stereo not given)	30
COc1ccc(CNC(=O)Nc2sc3c(c2C#N)CCCC3)c(OC)c1	28.5

1 = COc1cc(C=O)ccc1OCC(=O)Nc1sc2c(c1C#N)CCC(C)C2 (stereo not given)
2 = COc1cc(C=O)cc(OCC(=O)Nc2sc3c(c2C#N)CCC(C)C3)c1OC (racemic)
Just curious, which one has the larger remaining at 6 h reading, 1 or 2 ? # reply format: chosen label 2
(2: 50.6%, 1: 33.6%)

---

- assay: Stability in mouse plasma assessed as compound remaining parent compound after 1 hrs
- Format: ADME, cell-free
- applied.conditions: read-out: Stability
attribute.measured: remaining at 1 h (%)

Sample records with remaining at 1 h:
compound	unit.symbol	remaining at 1 h
COc1ccc(CNC(=O)Nc2sc3c(c2C#N)CCCC3)c(OC)c1	%	51.4
COc1ccc(C=O)cc1OCC(=O)Nc1sc2c(c1C#N)CCC(C)C2 (stereo not given)	%	35
COc1cc(C=O)ccc1OCC(=O)Nc1sc2c(c1C#N)CCC(C)C2 (stereo not given)	%	72.9

P = COc1ccc(C=O)c(OCC(=O)Nc2sc3c(c2C#N)CCC(C)C3)c1 (stereo not given)
Q = COc1cc(C=O)cc(OCC(=O)Nc2sc3c(c2C#N)CCC(C)C3)c1OC (racemic)
Just curious, which one has the larger remaining at 1 h reading, P or Q ? # reply format: chosen label Q
